Below, each of the compounds is paired with its reported pIC50 value.
testedTarget: human GPR17 short isoform (Homo sapiens (Human), UniProt Q13304)
Sequence (Q13304 29-367): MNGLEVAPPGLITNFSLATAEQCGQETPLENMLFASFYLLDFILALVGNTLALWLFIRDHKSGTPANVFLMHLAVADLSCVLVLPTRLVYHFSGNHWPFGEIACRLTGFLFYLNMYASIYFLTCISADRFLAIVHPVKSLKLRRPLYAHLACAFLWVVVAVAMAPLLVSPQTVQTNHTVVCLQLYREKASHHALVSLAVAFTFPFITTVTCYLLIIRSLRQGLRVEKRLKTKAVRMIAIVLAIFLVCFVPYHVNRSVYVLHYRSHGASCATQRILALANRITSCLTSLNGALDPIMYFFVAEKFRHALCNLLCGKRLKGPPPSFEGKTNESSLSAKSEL
assayProcedure: GPR17 cAMP assay (hGPR17 cAMP, antagonist mode against EC80 of MDL29,951)
measurementContext: CHO-K1 cells stably expressing human GPR17 short isoform; EC80 of agonist MDL29,951; forskolin 15 μM
Excerpt: GPR17 cAMP Assay Protocol: […] Changes in intracellular cyclic adenosine monophosphate (cAMP) levels were quantified using the Nano-TRF Detection Assay kit (Roche Diagnostics, Cat. No. 05214386001). This assay allows for direct cAMP quantification in a homogeneous solution, cAMP is detected based on time-resolved fluorescence energy transfer (TR-FRET) and competitive binding of ruthenylated cAMP and endogenous cAMP to an anti-cAMP monoclonal antibody labeled with AlexaFluor-700. […]
pIC50: −log10 of the molar value.
property: pIC50

[[record]]
compound = "CCCc1cnc(NS(=O)(=O)c2c[nH]c3cc(Cl)ccc23)nc1OC [Example 45]"
numericresult = 7.09

[[record]]
compound = "COc1nc(NS(=O)(=O)c2c[nH]c3nc(Br)ccc23)ncc1OCC(F)F [Example 161]"
numericresult = 7.14

[[record]]
compound = "CCc1ccc2c(S(=O)(=O)Nc3ncc(CC(F)F)c(OC)n3)c[nH]c2c1 [Example 152]"
numericresult = 6.98

[[record]]
compound = "COc1nc(NS(=O)(=O)c2c[nH]c3nc(Br)ccc23)ncc1OC(F)(F)CF [Example 231]"
numericresult = 7.68

[[record]]
compound = "COc1nc(NS(=O)(=O)c2c[nH]c3c(C)c(Br)ccc23)ncc1CC(F)F [Example 184]"
numericresult = 7.54

[[record]]
compound = "COc1nc(NS(=O)(=O)c2c[nH]c3c([S+](C)[O-])c(Cl)ccc23)nc(OC)c1OCCF (stereo not drawn) [Example 278]"
numericresult = 6.64

[[record]]
compound = "COc1nc(NS(=O)(=O)c2c[nH]c3c(F)c(Br)ccc23)nc(OC)c1CCC#N [Example 243]"
numericresult = 8.05

[[record]]
compound = "COc1nc(NS(=O)(=O)c2c[nH]c3cc(Cl)ccc23)ncc1CC(C)(F)F [Example 260]"
numericresult = 6.31

[[record]]
compound = "COc1nc(NS(=O)(=O)c2c[nH]c3c2ccc2cccnc23)nc(OC)c1OCCF [Example 117]"
numericresult = 7.52

[[record]]
compound = "COc1nc(NS(=O)(=O)c2c[nH]c3cc(Cl)ccc23)ncc1CCC(F)(F)F [Example 178]"
numericresult = 6.97

[[record]]
compound = "CSc1nc(NS(=O)(=O)c2c[nH]c3cc(Cl)ccc23)ncc1OCC(F)F [Example 35]"
numericresult = 6.32

[[record]]
compound = "COc1nc(NS(=O)(=O)c2c[nH]c3c(N(C)C)c(Cl)ccc23)nc(OC)c1CC(F)F [Example 115]"
numericresult = 7.59

[[record]]
compound = "COc1nc(NS(=O)(=O)c2c[nH]c3cc(Cl)ccc23)nc(OC(F)F)c1Br [Example 18]"
numericresult = 7.08

[[record]]
compound = "COc1nc(NS(=O)(=O)c2c[nH]c3nc(C)ccc23)nc(OC)c1OC(F)F [Example 286]"
numericresult = 6.69

[[record]]
compound = "COc1nc(NS(=O)(=O)c2c[nH]c3c(OC4CC4)c(Cl)ccc23)ncc1OCCF [Example 5]"
numericresult = 6.99

